system-under-test: T1, human plasma kallikrein (full length, active) (human, UniProt P03952 20-390; P03952 391-638)
T1 construct: two disulfide linked polypeptides; also called Full length pKal; pKal
T1 sequence (P03952 20-390, chain 1 of 2): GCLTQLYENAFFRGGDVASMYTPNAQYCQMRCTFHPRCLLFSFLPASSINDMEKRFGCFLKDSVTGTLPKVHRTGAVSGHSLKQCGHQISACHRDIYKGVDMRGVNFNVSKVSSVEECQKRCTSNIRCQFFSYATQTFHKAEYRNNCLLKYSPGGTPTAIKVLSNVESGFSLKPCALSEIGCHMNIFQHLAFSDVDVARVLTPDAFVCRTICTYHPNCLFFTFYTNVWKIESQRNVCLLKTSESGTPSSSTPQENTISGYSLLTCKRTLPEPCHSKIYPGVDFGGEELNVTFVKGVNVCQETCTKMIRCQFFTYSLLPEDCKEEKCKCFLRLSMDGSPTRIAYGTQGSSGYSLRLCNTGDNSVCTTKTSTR
T1 sequence (P03952 391-638, chain 2 of 2): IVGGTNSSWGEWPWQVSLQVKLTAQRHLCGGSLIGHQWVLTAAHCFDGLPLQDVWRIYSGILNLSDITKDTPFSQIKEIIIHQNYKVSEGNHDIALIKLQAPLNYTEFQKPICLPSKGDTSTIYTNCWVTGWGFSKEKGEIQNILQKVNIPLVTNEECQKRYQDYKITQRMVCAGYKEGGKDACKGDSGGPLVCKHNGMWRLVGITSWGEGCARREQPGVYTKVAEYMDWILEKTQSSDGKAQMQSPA
assay-method-text: Ki,app: enzyme inhibition, fluorescent substrate, 2 h pre-incubation at 30 C, tight-binding fit
measured-attribute: Ki

DX-2922 (antibody, V domains shown, Germlined IgG produced in CHO cells; only the variable domains are printed; also called X101-A01; 559A-X0101-A01) VH: EVQLLESGGGLVQPGGSLRLSCAASGFTFSHYLMTWVRQAPGKGLEWVSYISPSGGHTIYADSVKGRFTISRDNSKNTLYLQMNSLRAEDTAVYYCARVARGIAARSRTSYFDYWGQGTLVTVSS VL: EIVLTQSPGTLSLSPGERATLSCRTSQFVNSNYLAWYQQKPGQAPRLLIYGASSRATGIPDRFSGSGSGTDFTLTISRLEPEDFAVYYCQQSSRTPWTFGQGTKVEIK ... 0.2 nM

M35-G04 (antibody, V domains shown, Only variable domains printed; also called 559A-M35-G04; 559A-M0035-G04) VH: EVQLLESGGGLVQPGGSLRLSCAASGFTFSYYHMSWVRQAPGKGLEWVSVISPSGGSTKYADSVKGRFTISRDNSKNTLYLQMNSLRAEDTAVYYCARGGSSDYAWGSYRRPYYFDYWGQGTLVTVSS VL: DIQMTQSPATLSLSPGERATLSCRASQSVSSYLAWYQQKPGQAPRLLIYDASNRATGIPARFSGSGSGTDFTLTISSLEPEDFAVYYCQQRSNWPRGFTFGPGTKVDIK yielded Ki of 2.9 nM
